Biological target: RORβ (Rattus norvegicus, UniProt P45446)
Construct: rRORβ (Pro 205-end); expressed in transfected cells
Sequence (P45446 216-470): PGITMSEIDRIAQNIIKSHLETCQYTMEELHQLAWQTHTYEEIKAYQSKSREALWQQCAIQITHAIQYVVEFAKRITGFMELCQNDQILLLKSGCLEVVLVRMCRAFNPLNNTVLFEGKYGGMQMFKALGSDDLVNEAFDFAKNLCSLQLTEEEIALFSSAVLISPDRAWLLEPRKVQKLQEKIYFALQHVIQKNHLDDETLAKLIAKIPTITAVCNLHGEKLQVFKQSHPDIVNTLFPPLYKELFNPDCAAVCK
Experiment: Gal4-RORβ-LBD UAS-luciferase reporter assay in TRex-CHO-K1 cells (doxycycline-stimulated)
Assay type: cell-based
Details: IC50 (μM) (N=4) RORβ, individual controls of library 1295, second confirmatory dose response, Figure 2
Source text: To investigate the transcriptional activity of all three RORs, we generated stable cell lines expressing an UAS-driven luciferase reporter together with the corresponding Gal4-DNA binding domain fused to the ligand binding domains (LBDs) of mRORγ (Pro-261-end), hRORα (Pro-211-end), or rRORβ (Pro 205-end). […]

# compound, IC50
measured = [
    ("CC(C)(C)C(=O)NC1=NC[C@H](Cc2ccccc2)N1CCc1ccccc1 [1295.298]", "10.8 µM"),
    ("O=C(CC1CC2CCC1C2)NC1=NC[C@H](Cc2ccccc2)N1CCc1ccccc1 (some centres unmarked) [1295.307]", "7.6 µM"),
    ("O=C(CCC1CCCCC1)NC1=NC[C@H](Cc2ccccc2)N1CCc1ccccc1 [1295.305]", "10.4 µM"),
    ("CC1CCC(CN2C(NC(=O)Cc3ccccc3)=NC[C@@H]2Cc2ccccc2)CC1 (some centres unmarked) [1295.269]", "9.3 µM"),
    ("O=C(Cc1ccccc1)NC1=NC[C@H](Cc2ccccc2)N1CCC1CC2CCC1C2 (some centres unmarked) [1295.270]", "9.3 µM"),
]

----------
Molecular target: RORα (Homo sapiens)
Construct: hRORα (Pro-211-end); expressed in transfected cells
Sequence (P35398 266-523): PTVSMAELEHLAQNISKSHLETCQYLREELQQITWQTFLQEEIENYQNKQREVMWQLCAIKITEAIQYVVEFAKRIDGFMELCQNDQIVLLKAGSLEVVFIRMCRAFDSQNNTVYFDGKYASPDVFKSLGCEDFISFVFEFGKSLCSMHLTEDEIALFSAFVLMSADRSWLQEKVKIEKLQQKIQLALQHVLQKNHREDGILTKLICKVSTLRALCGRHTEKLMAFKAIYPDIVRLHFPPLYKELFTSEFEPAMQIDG
Assay: Gal4-RORα-LBD UAS-luciferase reporter assay in TRex-CHO-K1 cells (doxycycline-stimulated)
Format: cell-based
Details: IC50 (μM) (N=4) RORα, individual controls of library 1295, second confirmatory dose response, Figure 2
Entries and their IC50

# molecule, measurement target, IC50 [µM]
records = [
    ("CC1CCC(C(=O)NC2=NC[C@H](Cc3ccccc3)N2CCc2ccccc2)CC1 (stereo partly drawn)", "RORα (Homo sapiens)", 9.7),
    ("CC(CC(=O)NC1=NC[C@H](Cc2ccccc2)N1CCc1ccccc1)c1ccccc1 (stereo partly drawn)", "RORα (Homo sapiens)", 7.4),
    ("O=C(CCC1CCCCC1)NC1=NC[C@H](Cc2ccccc2)N1CCc1ccccc1", "RORα (Homo sapiens)", 10.3),
]

----------
target: RORβ (Rattus norvegicus, UniProt P45446); construct: rRORβ (Pro 205-end); expressed in transfected cells; assay: Gal4-RORβ-LBD UAS-luciferase reporter assay in TRex-CHO-K1 cells (doxycycline-stimulated); format: cell-based; conditions: IC50 (μM, N=4) ROR-Beta, library 2520
Quick reference for IC50 among some molecules
parameter: IC50 (µM)

# molecule, obs value
data = [
    ("CCOc1ccc(C[C@H]2CN=C(NC(=O)C(CC)c3ccccc3)N2CC2CCCCC2)cc1 (stereo partly drawn)", 5.34),
    ("CCOc1ccc(C[C@H]2CN=C(NC(=O)C(CC)c3ccccc3)N2CCC2CC3CCC2C3)cc1 (stereo partly drawn)", 6.67),
    ("CCC(C(=O)NC1=NC[C@H](Cc2ccccc2)N1CCC(C)c1ccccc1)c1ccccc1 (stereo partly drawn)", 5.5),
]

----------
Molecular target: RORγ (Mus musculus)
Construct: mRORγ (Pro-261-end); expressed in transfected cells
Sequence (P51450 261-516 limits assumed): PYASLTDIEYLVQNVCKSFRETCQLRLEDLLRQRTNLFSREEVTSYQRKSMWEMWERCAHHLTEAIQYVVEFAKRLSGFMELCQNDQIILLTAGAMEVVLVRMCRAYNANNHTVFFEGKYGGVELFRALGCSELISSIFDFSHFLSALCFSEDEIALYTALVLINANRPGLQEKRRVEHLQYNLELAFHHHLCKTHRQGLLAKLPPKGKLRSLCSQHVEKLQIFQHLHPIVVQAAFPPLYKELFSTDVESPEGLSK
Assay: Gal4-RORγ-LBD UAS-luciferase reporter assay in TRex-CHO-K1 cells (doxycycline-stimulated)
Type: cell-based
Conditions: T-REx-CHO-K1; individual controls 1295.201-307, 5 μg/ml, triplicate; read-out: % Inhibition RORγ 5 μg/ml
The label depends only on inhibition at 5 µg/mL: TRUE if it is at least 90%, FALSE if it is smaller.

# chemical structure, cat
data = [
    ("O=C(CCc1ccccc1)NC1=NC[C@H](Cc2ccccc2)N1CCc1ccccc1", "FALSE"),
    ("O=C(CCC1CCCCC1)NC1=NC[C@H](Cc2ccccc2)N1CCc1ccccc1", "FALSE"),
    ("O=C(NC1=NC[C@H](Cc2ccccc2)N1CCc1ccccc1)C1(c2ccccc2)CC1", "TRUE"),
    ("CC(C)(C)C(=O)NC1=NC[C@H](Cc2ccccc2)N1CCc1ccccc1", "TRUE"),
    ("O=C(CCCC1CCCCC1)NC1=NC[C@H](Cc2ccccc2)N1CCc1ccccc1", "FALSE"),
]

----------
biological target: RORγ (Mus musculus); construct: mRORγ (Pro-261-end); expressed in transfected cells; assay: Gal4-RORγ-LBD UAS-luciferase reporter assay in TRex-CHO-K1 cells (doxycycline-stimulated); assay type: cell-based; conditions: individual controls 1295.201-307, 5 μg/ml, triplicate
Entries annotated with measured % Inhibition RORγ 5 μg/ml

# compound, measurement target, % Inhibition RORγ 5 μg/ml
measured = [
    ("O=C(Cc1ccccc1)NC1=NC[C@H](Cc2ccccc2)N1CCCC1CCCC1 [1295.267]", "RORγ (Mus musculus)", "56.2%"),
    ("O=C(Cc1ccccc1)NC1=NC[C@H](Cc2ccccc2)N1CCc1ccccc1 [1295.250]", "RORγ (Mus musculus)", "9.9%"),
    ("O=C(Cc1ccccc1)NC1=NC[C@H](Cc2ccccc2)N1CCc1cc(C(F)(F)F)cc(C(F)(F)F)c1 [1295.246]", "RORγ (Mus musculus)", "20.0%"),
    ("CCOc1ccc(C[C@H]2CN=C(NC(=O)Cc3ccccc3)N2CCc2ccccc2)cc1 [1295.233]", "RORγ (Mus musculus)", "31.0%"),
    ("CC1(C)CN=C(NC(=O)Cc2ccccc2)N1CCc1ccccc1 [1295.214]", "RORγ (Mus musculus)", "1.6%"),
    ("O=C(Cc1cccc(F)c1)NC1=NC[C@H](Cc2ccccc2)N1CCc1ccccc1 [1295.276]", "RORγ (Mus musculus)", "104.2%"),
    ("COc1cccc(CC(=O)NC2=NC[C@H](Cc3ccccc3)N2CCc2ccccc2)c1 [1295.279]", "RORγ (Mus musculus)", "75.2%"),
    ("O=C(Cc1ccccc1)NC1=NC[C@H](Cc2ccc3ccccc3c2)N1CCc1ccccc1 [1295.221]", "RORγ (Mus musculus)", "31.3%"),
    ("CCCC[C@@H]1CN=C(NC(=O)Cc2ccccc2)N1CCc1ccccc1 [1295.218]", "RORγ (Mus musculus)", "-11.7%"),
    ("O=C(Cc1ccccc1)NC1=NC[C@H](Cc2ccccc2)N1CC1CCC1 [1295.265]", "RORγ (Mus musculus)", "53.1%"),
    ("CC(C)Cc1ccc(C(C)CN2C(NC(=O)Cc3ccccc3)=NCC2Cc2ccccc2)cc1 (mixture of isomers) [1295.245]", "RORγ (Mus musculus)", "21.5%"),
    ("CCC(C)CN1C(NC(=O)Cc2ccccc2)=NCC1Cc1ccccc1 (mixture of isomers) [1295.256]", "RORγ (Mus musculus)", "-8.1%"),
    ("CC(C)C[C@H]1CN=C(NC(=O)Cc2ccccc2)N1CCc1ccccc1 [1295.205]", "RORγ (Mus musculus)", "54.1%"),
    ("CCc1ccc(-c2ccc(C(=O)NC3=NC[C@H](Cc4ccccc4)N3CCc3ccccc3)cc2)cc1 [1295.292]", "RORγ (Mus musculus)", "48.3%"),
    ("CC(C)C(=O)NC1=NC[C@H](Cc2ccccc2)N1CCc1ccccc1 [1295.295]", "RORγ (Mus musculus)", "31.3%"),
    ("O=C(Cc1ccccc1)NC1=NC[C@H](Cc2ccc(F)cc2)N1CCc1ccccc1 [1295.227]", "RORγ (Mus musculus)", "-8.2%"),
    ("O=C(Cc1cccc(Br)c1)NC1=NC[C@H](Cc2ccccc2)N1CCc1ccccc1 [1295.277]", "RORγ (Mus musculus)", "97.6%"),
    ("O=C(Cc1ccccc1)NC1=NC[C@H](c2ccccc2)N1CCc1ccccc1 [1295.219]", "RORγ (Mus musculus)", "0.1%"),
    ("O=C(Cc1ccccc1)NC1=NC[C@H](Cc2cccnc2)N1CCc1ccccc1 [1295.229]", "RORγ (Mus musculus)", "-23.1%"),
    ("Cc1cccc(CC(=O)NC2=NC[C@H](Cc3ccccc3)N2CCc2ccccc2)c1 [1295.275]", "RORγ (Mus musculus)", "60.7%"),
    ("O=C(Cc1ccccc1)NC1=NC[C@H](Cc2ccccc2)N1CCCc1ccccc1 [1295.251]", "RORγ (Mus musculus)", "-112.4%"),
    ("O=C(Cc1ccccc1)NC1=NC[C@H](Cc2ccc(Cl)cc2)N1CCc1ccccc1 [1295.225]", "RORγ (Mus musculus)", "-32.6%"),
    ("COc1ccc(CCN2C(NC(=O)Cc3ccccc3)=NC[C@@H]2Cc2ccccc2)cc1OC [1295.249]", "RORγ (Mus musculus)", "42.2%"),
    ("O=C(NC1=NC[C@H](Cc2ccccc2)N1CCc1ccccc1)C1CCC1 [1295.302]", "RORγ (Mus musculus)", "24.7%"),
    ("O=C(Cc1ccc(Br)cc1)NC1=NC[C@H](Cc2ccccc2)N1CCc1ccccc1 [1295.280]", "RORγ (Mus musculus)", "42.0%"),
    ("C[C@H]1CN=C(NC(=O)Cc2ccccc2)N1CCc1ccccc1 [1295.201]", "RORγ (Mus musculus)", "-40.7%"),
    ("O=C(CCC1CCCC1)NC1=NC[C@H](Cc2ccccc2)N1CCc1ccccc1 [1295.304]", "RORγ (Mus musculus)", "45.5%"),
    ("CCC[C@@H]1CN=C(NC(=O)Cc2ccccc2)N1CCc1ccccc1 [1295.216]", "RORγ (Mus musculus)", "24.5%"),
    ("O=C(Cc1ccccc1)NC1=NC[C@H](Cc2ccccc2)N1CC1CCCCC1 [1295.260]", "RORγ (Mus musculus)", "-10.7%"),
    ("O=C(Cc1ccccc1)NC1=NC[C@@H](Cc2ccc(F)cc2)N1CCc1ccccc1 [1295.228]", "RORγ (Mus musculus)", "31.3%"),
    ("CCCC(=O)NC1=NC[C@H](Cc2ccccc2)N1CCc1ccccc1 [1295.293]", "RORγ (Mus musculus)", "37.4%"),
    ("O=C(Cc1ccccc1)NC1=NC[C@H](Cc2ccccc2)N1CCC12CC3CC(CC(C3)C1)C2 [1295.271]", "RORγ (Mus musculus)", "36.0%"),
    ("CCOc1ccc(CCN2C(NC(=O)Cc3ccccc3)=NCC2Cc2ccccc2)cc1 (centres unmarked) [1295.244]", "RORγ (Mus musculus)", "5.9%"),
    ("O=C(NC1=NC[C@H](Cc2ccccc2)N1CCc1ccccc1)C1CCCC1 [1295.303]", "RORγ (Mus musculus)", "3.3%"),
    ("O=C(Cc1ccccc1)NC1=NC[C@@H](Cc2ccc(Cl)cc2)N1CCc1ccccc1 [1295.226]", "RORγ (Mus musculus)", "6.9%"),
]
